# TEST_TARGET: T1, recombinant human CD8 (rhCD8) (human, UniProt P01732 22-182)
# T1 construct: Soluble purified recombinant protein; also called purified recombinant human CD8 protein; soluble CD8
# T1 sequence (P01732 22-182 limits assumed): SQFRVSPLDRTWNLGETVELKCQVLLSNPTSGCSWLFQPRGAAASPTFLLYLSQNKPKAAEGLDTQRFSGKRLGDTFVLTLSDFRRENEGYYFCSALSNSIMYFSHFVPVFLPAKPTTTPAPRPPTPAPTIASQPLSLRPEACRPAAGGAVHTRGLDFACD
# MEASUREMENT_DESCRIPTION: SPR (BIAcore), minibody captured via anti-human IgG Fc, hCD8 analyte at 50 nM
# Source text: Surface plasma resonance (SPR) was used to determine the binding affinity for all the IAb_Mb_CD8 variants to recombinant human CD8 (Table 8.0). The minibody protein in the supernatant was captured on to the BIAcore chip using an anti-human IgG (Fc-specific) antibody. […] Table 8.0 summarizes the measured association (ka), dissociation (kd), and kD constants for the IAb_Mb_CD8 variants binding to recombinant hCD8. […]

{"BINDER": "IAb_Mb2b_CD8 (other, also called IAb M2b CD8) EVQLVESGGGLVQPGGSLRLSCAASGFNIKDTYIHFVRQAPGKGLEWIGRIDPANDNTLYASKFQGKATISADTSKNTAYLQMNSLRAEDTAVYYCGRGYGYYVFDHWGQGTLVTVSSGSTSGGGSGGGSGGGGSSDVQITQSPSSLSASVGDRVTITCRTSRSISQYLAWYQQKPGKVPKLLIYSGSTLQSGVPSRFSGSGSGTDFTLTISSLQPEDVATYYCQQHNENPLTFGGGTKVEIKEPKSCDKTHTCPPCGGGSSGGGSGGQPREPQVYTLPPSRDELTKNQVSLTCLVKGFYPSDIAVEWESNGQPENNYKTTPPVLDSDGSFFLYSKLTVDKSRWQQGNVFSCSVMHEALHNHYTQKSLSLSPGK", "koff (s⁻¹)": 0.0021}
{"BINDER": "IAb_Mb2d_CD8 (other, also called variant 2d) QVQLVQSGAEVKKPGATVKISCKVSGFNIKDTYIHFVQQAPGKGLEWIGRIDPANDNTLYASKFQGKATITADTSTDTAYMELSSLRSEDTAVYYCGRGYGYYVFDHWGQGTLVTVSGSTSGGGSGGGSGGGGSSDVQITQSPSSLSASVGDRVTITCRTSRSISQYLAWYQQKPGKVPKLLIYSGSTLQSGVPSRFSGSGSGTDFTLTISSLQPEDVATYYCQQHNENPLTFGGGTKVEIKEPKSCDKTHTCPPCGGGSSGGGSGGQPREPQVYTLPPSRDELTKNQVSLTCLVKGFYPSDIAVEWESNGQPENNYKTTPPVLDSDGSFFLYSKLTVDKSRWQQGNVFSCSVMHEALHNHYTQKSLSLSPGK", "koff (s⁻¹)": 0.0029}

Recorded values, source patent US20190382488A1.
